Data origin: the supplement of paper PMC10127200

Measured Euclidean distance accompanies every entry in the list below.
# Tested on: OVCAR4
# Method Summary: Euclidean distance of Cell Painting phenotypic profile (signed KS, 77 features) to DMSO centroid (dimensionless distance); 5 or 10 uM (library dependent); higher = stronger phenotypic change vs DMSO (phenoactivity)
# Condition Set: 48 h
Where a name gives a salt, the structure may show the parent alone.
Format: numeric value only, no unit, no commentary.

The cases that follow already have their Euclidean distance on record.
compound=O=P(O)(O)OC(Cn1cncn1)(Cn1cncn1)c1ccc(F)cc1F reported_result=1.23
compound=C[C@@]12C[C@@]3(O)O[C@@H](O1)[C@]1(COC(=O)c4ccccc4)[C@H]3C[C@@]12O[C@@H]1O[C@H](CO)[C@@H](O)[C@H](O)[C@H]1O reported_result=1.17
compound=O=C(CCCN1CCC(O)(c2ccc(Cl)cc2)CC1)c1ccc(F)cc1 reported_result=1.95
compound="CC(C)NC[C@@H](O)COc1ccc(CC(N)=O)cc1 [(R)-(+)-Atenolol HCl]" reported_result=0.511
compound=CCC(=O)NCC[C@@H]1CCc2ccc3c(c21)CCO3 reported_result=1.07
compound="Cc1[nH]cnc1CN1CCc2c(c3ccccc3n2C)C1=O [Alosetron Hydrochloride]" reported_result=1.33
compound=O=C(O)/C=C/c1cnc[nH]1 reported_result=1.26
compound="Cc1c(N)c(=O)n(-c2ccccc2)n1C [4-Aminoantipyrine]" reported_result=1.32

Now examine the next entry.
Dear colleague, I am looking for the recorded Euclidean distance of the following compound: Cn1cc(-c2cnn3c(N)c(Br)c([C@@H]4CCCNC4)nc23)cn1
2.36

###

Euclidean distance reference
# Tested on: A549
# Method Summary: Euclidean distance of Cell Painting phenotypic profile (signed KS, 77 features) to DMSO centroid (dimensionless distance); 5 or 10 uM (library dependent); higher = stronger phenotypic change vs DMSO (phenoactivity)
# Condition Set: 48 h

compound=CCCCCCCCCC(=O)N[C@@H](Cc1c[nH]c2ccccc12)C(=O)N[C@H](CC(N)=O)C(=O)N[C@@H](CC(=O)O)C(=O)N[C@@H]1C(=O)NCC(=O)N[C@@H](CCCN)C(=O)N[C@@H](CC(=O)O)C(=O)N[C@H](C)C(=O)N[C@@H](CC(=O)O)C(=O)NCC(=O)N[C@H](CO)C(=O)N[C@@H]([C@H](C)CC(=O)O)C(=O)N[C@@H](CC(=O)c2ccccc2N)C(=O)O[C@@H]1C reported_result=0.544

Which measured Euclidean distance belongs to O=c1c(-c2ccc(O)cc2)coc2cc(O)ccc12 , tested on A549?
0.736

Report Euclidean distance for C=C1C(=O)O[C@@H]2/C=C(\C)CC/C=C(\C)CC[C@@H]12 [Costunolide] tested on A549.
0.924

###

# System: OVCAR4
# Method Summary: Euclidean distance of Cell Painting phenotypic profile (signed KS, 77 features) to DMSO centroid (dimensionless distance); 5 or 10 uM (library dependent); higher = stronger phenotypic change vs DMSO (phenoactivity)
# Condition Set: 48 h
Where a name gives a salt, the structure may show the parent alone.
Quick rule for you: Euclidean distance at 1 or higher means Fulfilled, lower means Not fulfilled.

molecule="O=c1ccn([C@@H]2O[C@H](COP(=O)(O)OP(=O)(O)OP(=O)(O)OP(=O)(O)OC[C@H]3O[C@@H](n4ccc(=O)[nH]c4=O)[C@H](O)[C@@H]3O)[C@@H](O)[C@H]2O)c(=O)[nH]1 [Diquafosol Tetrasodium]" target_entity=OVCAR4 qualitative_label=Fulfilled
molecule="CNNCc1ccc(C(=O)NC(C)C)cc1 [Procarbazine HCl]" target_entity=OVCAR4 qualitative_label="Not fulfilled"
molecule=c1cnc(NCc2ccc(CNc3ncccn3)cc2)nc1 target_entity=OVCAR4 qualitative_label=Fulfilled
molecule=N[C@@H](Cc1cc(I)c(Oc2cc(I)c(O)c(I)c2)c(I)c1)C(=O)O target_entity=OVCAR4 qualitative_label=Fulfilled
molecule=O=C(Nc1c(Cl)cncc1Cl)c1ccc(OC(F)F)c(OCC2CC2)c1 target_entity=OVCAR4 qualitative_label=Fulfilled
molecule="CCOC(=O)C1=C[C@@H](OC(CC)CC)[C@H](NC(C)=O)[C@@H](N)C1 [Oseltamivir phosphate]" target_entity=OVCAR4 qualitative_label=Fulfilled

Assess whether reported Euclidean distance for Clc1ccc(C2(c3ccc(-c4cn[nH]c4)cc3)CCNCC2)cc1 sits at 1 or higher.
Fulfilled

Kindly determine if Euclidean distance recorded for O=C(/C=C/c1ccc(CN(CCO)CCc2c[nH]c3ccccc23)cc1)NO is above or exactly 1.
Fulfilled

Tell me whether Euclidean distance is at least 1 here: CCCN(CCc1cccs1)[C@H]1CCc2c(O)cccc2C1
Not fulfilled

Would you say Cc1cnc(NC(=O)C2=C(O)c3ccccc3S(=O)(=O)N2C)s1 shows Euclidean distance at minimum 1?
Not fulfilled

# bool: Euclidean distance of CC(=O)Nc1ccc(NC(=S)NC(=O)c2ccc(C(C)(C)C)cc2)cc1 >= 1
Fulfilled

// inclusive: Euclidean distance at least 1? input: CS(=O)(=O)CCC#N
Fulfilled

Euclidean distance >= 1 for C#C[C@]1(O)CC[C@H]2[C@@H]3CCc4cc(OC5CCCC5)ccc4[C@H]3CC[C@@]21C ?
Fulfilled

Could you tell me if the measured Euclidean distance of OCC(O)CN1CCN(c2ccccc2)CC1 (centres undefined) reaches 1 or more?
Fulfilled

API: above_or_equal(metric=Euclidean distance, cutoff=1) for item O=C(COc1cccc2c(=O)[nH]ccc12)c1ccccc1
Not fulfilled

Check the entry CC(=O)Nc1ccc(CC(=O)O)cc1 : does Euclidean distance equal or exceed 1?
Not fulfilled

Can CN(C)CCCCC(=O)Nc1ccc(NC(=S)NC(=O)c2ccc(C(C)(C)C)cc2)cc1 be said to have Euclidean distance at or above 1?
Fulfilled

Decide: Euclidean distance of O=c1[nH]nc2c3c(cccc13)N=C(CN1Cc3ccccc3C1)N2 >= 1?
Fulfilled
